The following compounds are listed with their measured pIC50 values.
test system: MDA-MB-468; experiment: Cytotoxicity against human MDA-MB-468 cells assessed as reduction in cell viability after 72 hrs by MTT colorimetric assay; format: functional, cell-based; conditions: MDA-MB-468, 72 h
pIC50: −log10 of the molar value.

Compound: Cn1cc(C(/C(=N\O)c2ccc(Br)cc2)c2cn(C)c3ccccc23)c2ccccc21
pIC50: 4.20
//
Compound: COc1cc([C@@H]2c3cc4c(cc3[C@@H](O[C@@H]3O[C@@H]5CO[C@@H](C)O[C@H]5[C@H](O)[C@H]3O)[C@H]3COC(=O)[C@H]23)OCO4)cc(OC)c1O [ETOPOSIDE]
pIC50: 5.17
//
Compound: O/N=C(/c1ccc(Br)cc1)C(c1c[nH]c2ccccc12)c1c[nH]c2ccccc12
pIC50: 4.66
//
Compound: O/N=C(/c1ccccc1)C(c1c[nH]c2ccccc12)c1c[nH]c2ccccc12
pIC50: 4.97
